test: Compound plasma exposure in mouse (CD-1), daily oral dosing, same table as the cyno DRF study; assay type: in vivo; conditions: CD-1, mouse, 300 mg/kg, 300 mg/kg PO, 14 days of dosing

{"compound": "CN1CCN([C@H]2CCCN(c3cnc(C(N)=O)c(Nc4ccc(C5CCN(CC6CCN(c7ccc(C(=O)NC8CCC(=O)NC8=O)nc7)CC6)CC5)cc4)n3)C2)C1=O (stereo partly drawn)", "Cmax, µM": 5.2}
{"compound": "CN1CCN([C@@H]2CCCN(c3cnc(C(N)=O)c(Nc4ccc(C5CCN(C[C@H]6CCN(c7ccc8c(c7)C(=O)N(C7CCC(=O)NC7=O)C8=O)C6)CC5)cc4)n3)C2)C1=O (stereo partly drawn)", "Cmax, µM": 0.94}
{"compound": "NC(=O)c1ncc(N2CCCCC2)nc1Nc1ccc(C2CCN(C[C@@H]3CCN(c4ccc5c(c4)C(=O)N(C4CCC(=O)NC4=O)C5=O)C3)CC2)cc1 (stereo partly drawn)", "Cmax, µM": 4.1}

All figures here come from patent US12600732B2.
